# Tested on: Human immunodeficiency virus type 1 reverse transcriptase (Human immunodeficiency virus 1), Q72547 [K103N]
# assay: Inhibition of HIV1 Reverse transcriptase p51/p66 K103N mutant at 10 uM after 30 mins using alpha-[32P]dATP by liquid scintillation counting
# inhibition annotations

# compound, valueModifier, inhibition, %
records = [
    ("O=C(OC1C=CC(n2ccc(=O)n(Cc3ccccc3)c2=O)C1)c1cc(Cl)cc(Cl)c1 (centres undefined)", "=", 53),
    ("O=C(OC1C=CC(n2ccc(=O)n(Cc3ccccc3)c2=O)C1)c1ccccc1 (centres undefined)", "=", 26),
    ("Cc1cc(C)cc(C(=O)OC2C=CC(n3ccc(=O)n(Cc4ccccc4)c3=O)C2)c1 (centres undefined)", "=", 37),
    ("Cc1ccnc2c1NC(=O)c1cccnc1N2C1CC1 [NEVIRAPINE]", "<", 10),
]

====

# inhibition annotations
# System: Human immunodeficiency virus type 1 reverse transcriptase (Human immunodeficiency virus 1), Q72547 [V106A]
# assay: Inhibition of HIV1 Reverse transcriptase p51/p66 V106A mutant at 10 uM after 30 mins using alpha-[32P]dATP by liquid scintillation counting

# compound, inhibition
rows = [
    ("Cc1ccnc2c1NC(=O)c1cccnc1N2C1CC1 [NEVIRAPINE]", "< 10%"),
    ("Cc1cc(C)cc(C(=O)OC2C=CC(n3ccc(=O)n(Cc4ccccc4)c3=O)C2)c1 (centres undefined)", "14%"),
    ("O=C(OC1C=CC(n2ccc(=O)n(Cc3ccccc3)c2=O)C1)c1ccccc1 (centres undefined)", "12%"),
    ("O=C(OC1C=CC(n2ccc(=O)n(Cc3ccccc3)c2=O)C1)c1cc(Cl)cc(Cl)c1 (centres undefined)", "20%"),
]

====

# pIC50 annotations
# systemName: Human immunodeficiency virus type 1 reverse transcriptase (Human immunodeficiency virus 1, UniProt Q72547)
pIC50: −log10 of the molar value.

# molecule, valueModifier, pIC50
data = [
    ("Cc1cc(C)cc(C(=O)OC2C=CC(n3ccc(=O)n(C(=O)c4cc(C)cc(C)c4)c3=O)C2)c1 (centres undefined)", "<", 4.00),
    ("O=C(OC1C=CC(n2ccc(=O)n(Cc3ccccc3)c2=O)C1)c1cc(Cl)cc(Cl)c1 (centres undefined)", "=", 5.29),
    ("O=C(OC1C=CC(n2ccc(=O)[nH]c2=O)C1)c1cc(Cl)cc(Cl)c1 (centres undefined)", "<", 4.00),
    ("O=C(Oc1cccc(Cn2ccc(=O)n(Cc3ccccc3)c2=O)c1)c1ccccc1", "=", 4.49),
    ("O=C(Cc1ccccc1)OC1C=CC(n2ccc(=O)n(Cc3ccccc3)c2=O)C1 (centres undefined)", "=", 4.28),
    ("Cc1cc(C)cc(C(=O)OC2C=CC(n3ccc(=O)n(Cc4ccccc4)c3=O)C2)c1 (centres undefined)", "=", 5.09),
    ("Cc1cc(C)cc(C(=O)OC2C=CC(n3ccc(=O)[nH]c3=O)C2)c1 (centres undefined)", "<", 4.00),
    ("O=C(Oc1cccc(Cn2ccc(=O)[nH]c2=O)c1)c1cc(Cl)cc(Cl)c1", "=", 4.38),
    ("O=C(Oc1ccccc1Cn1ccc(=O)n(Cc2ccccc2)c1=O)c1ccccc1", "<", 4.00),
]

====

# IC50 annotations
# systemName: Human immunodeficiency virus type 1 reverse transcriptase (Human immunodeficiency virus 1, UniProt Q72547, K103N)
# assay: Inhibition of HIV1 Reverse transcriptase p51/p66 K103N mutant after 30 mins using alpha-[32P]dATP by liquid scintillation counting

# compound, IC50 [µM]
measured = [
    ("O=C(OC1C=CC(n2ccc(=O)n(Cc3ccccc3)c2=O)C1)c1cc(Cl)cc(Cl)c1 (configuration not stated)", 8.8),
    ("Cc1cc(C)cc(C(=O)OC2C=CC(n3ccc(=O)n(Cc4ccccc4)c3=O)C2)c1 (configuration not stated)", 17.3),
]

Attribution: ChEMBL document CHEMBL3217511
